- Test system: CCRIS mutagenicity, Ames/micronucleus/aberration tests
- experimental-protocol: CCRIS mutagenicity studies
- conditions-used: Test System: AMES SALMONELLA TYPHIMURIUM; Strain/Indicator: TA100; Metabolic Activation: S-9; Method: STANDARD PLATE
Activity calls are given as the source filed them. No rule for the calls is given here.
Labels: active, inactive

| compound | answer-label |
| --- | --- |
| O=C(N=c1sn(C(=O)c2ccc(Cl)c(Cl)c2)c2ccc([N+](=O)[O-])cc12)c1ccc(Cl)c(Cl)c1 | active |
| c1cc2sncc2cc1OCC1CO1 (configuration not stated) | active |
| COc1nsc2ccc(N)cc12 | active |
| CC(C)Nc1ccc(Nc2ccccc2)cc1 | inactive |
| CC1=CC(C)(C)Nc2ccccc21 | inactive |
| C=CCc1ccc(O)c(OC)c1 | inactive |
| CC(C)(C)c1cc(-c2ccccc2)ccc1[N+](=O)[O-] | inactive |
